Biological target: EGFR (Homo sapiens)
Construct: A skin cancer cell line, A431 (ATCC: CRL-1555), was used; endogenous in cells; host or cells: A431 (ATCC: CRL-1555)
Assay: Prolongation study in A431 cells (EGFR phosphorylation inhibition)
Assay type: cell-based
Conditions: A-431; 1 μM for 4 hrs, then washed; 48 hrs after washing; EGF 100 ng/ml; read-out: EGFR phosphorylation inhibition in A431 cell line (%) 48 hrs Avg.
measuredQuantity: inhibition at 1 µM

Known inhibition at 1 µM results, listed for orientation:
# querySmiles, inhibition at 1 µM
rows = [
    ("C=CC(=O)N1CCC(Oc2cc3c(Nc4ccc(Cl)c(Cl)c4F)ncnc3cc2OC)CC1", "41%"),
    ("C=CC(=O)N1CCC(Oc2cc3c(Nc4ccc(F)c(Cl)c4F)ncnc3cc2OC)CC1", "34%"),
    ("C=CC(=O)N1CC[C@H](Oc2cc3c(Nc4ccc(F)c(Cl)c4F)ncnc3cc2OC)C1", "42%"),
]

We now examine a further compound.
// recorded inhibition at 1 µM for C=CC(=O)N1CC(Oc2cc3c(Nc4ccc(F)c(Cl)c4F)ncnc3cc2OC)C1 : 31%

###

Molecular target: EGFR T790M kinase (Homo sapiens, UniProt P00533, T790M)
Sequence (P00533 25-1210 T790M): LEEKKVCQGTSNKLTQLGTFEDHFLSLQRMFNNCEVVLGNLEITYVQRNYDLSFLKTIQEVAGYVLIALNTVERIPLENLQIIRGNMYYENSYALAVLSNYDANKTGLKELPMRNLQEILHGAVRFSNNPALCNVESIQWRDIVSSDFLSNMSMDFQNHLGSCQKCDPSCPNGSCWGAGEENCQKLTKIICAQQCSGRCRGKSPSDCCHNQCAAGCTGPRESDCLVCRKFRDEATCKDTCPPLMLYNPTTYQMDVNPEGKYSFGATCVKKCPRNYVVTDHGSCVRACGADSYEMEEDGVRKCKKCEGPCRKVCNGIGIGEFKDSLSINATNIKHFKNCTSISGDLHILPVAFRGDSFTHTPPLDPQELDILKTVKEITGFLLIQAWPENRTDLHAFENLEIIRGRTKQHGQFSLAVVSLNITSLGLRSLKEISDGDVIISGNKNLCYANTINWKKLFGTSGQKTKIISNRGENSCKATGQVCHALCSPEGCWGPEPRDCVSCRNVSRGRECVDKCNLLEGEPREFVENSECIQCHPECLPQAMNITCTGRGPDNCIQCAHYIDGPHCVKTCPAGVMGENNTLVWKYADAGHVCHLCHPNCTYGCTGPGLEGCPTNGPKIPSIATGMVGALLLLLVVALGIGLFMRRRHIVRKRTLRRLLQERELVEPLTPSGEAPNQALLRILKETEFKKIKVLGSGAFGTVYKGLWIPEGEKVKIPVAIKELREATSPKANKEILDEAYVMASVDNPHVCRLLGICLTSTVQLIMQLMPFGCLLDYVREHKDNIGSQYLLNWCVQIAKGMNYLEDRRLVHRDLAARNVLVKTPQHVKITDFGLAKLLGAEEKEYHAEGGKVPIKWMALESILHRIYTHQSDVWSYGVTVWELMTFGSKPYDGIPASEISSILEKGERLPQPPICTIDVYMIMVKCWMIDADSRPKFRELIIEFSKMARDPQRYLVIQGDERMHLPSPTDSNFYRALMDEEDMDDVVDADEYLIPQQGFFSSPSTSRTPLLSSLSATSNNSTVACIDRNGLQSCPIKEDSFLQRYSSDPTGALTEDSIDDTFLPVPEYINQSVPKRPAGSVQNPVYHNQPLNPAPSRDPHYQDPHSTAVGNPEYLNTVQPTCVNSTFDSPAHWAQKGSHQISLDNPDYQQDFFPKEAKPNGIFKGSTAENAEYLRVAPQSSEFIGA
Assay: Inhibition of EGFR mutant enzyme (T790M)
Consider the following compounds; for each one, report its IC50.
Give bare numbers, in nM.

# compound, IC50 (nM)
rows = [
    ("C=CC(=O)N1CCC(Oc2cc3c(Nc4ccc(F)c(Cl)c4F)ncnc3cc2OCCOC)CC1 [Example 117]", 3),
]

We now examine a further compound.
// recorded IC50 for C=CC(=O)N1CCC(Oc2ccc3ncnc(Nc4ccc(F)c(Cl)c4F)c3c2)CC1 [Example 71] : 24

###

Biological target: EGFR (Homo sapiens)
Construct: A skin cancer cell line, A431 (ATCC: CRL-1555), was used; endogenous in cells; host or cells: A431 (ATCC: CRL-1555)
Assay: Prolongation study in A431 cells (EGFR phosphorylation inhibition)
Type: cell-based
Conditions: A-431; 1 μM for 4 hrs, then washed; 0 hr after washing; EGF 100 ng/ml; read-out: EGFR phosphorylation inhibition in A431 cell line (%) 0 hr Avg.
measuredQuantity: inhibition at 1 µM (%)
Give bare numbers, in %.

Known inhibition at 1 µM results, listed for orientation:
# querySmiles, inhibition at 1 µM (%)
rows = [
    ("C=CC(=O)N1CC(Oc2cc3c(Nc4ccc(F)c(Cl)c4F)ncnc3cc2OC)C1", 87),
    ("C=CC(=O)N1CCC(Oc2cc3c(Nc4ccc(F)c(Cl)c4F)ncnc3cc2OC)CC1", 81),
    ("C=CC(=O)N1CC[C@H](Oc2cc3c(Nc4ccc(F)c(Cl)c4F)ncnc3cc2OC)C1", 71),
]

// recorded inhibition at 1 µM for C=CC(=O)N1CCC(Oc2cc3c(Nc4ccc(Cl)c(Cl)c4F)ncnc3cc2OC)CC1 : 90

###

Target: EGFR T790M kinase (Homo sapiens, UniProt P00533, T790M)
Experiment: Inhibition of EGFR mutant enzyme (T790M)
Settings: read-out: IC50 (nM) T790M; EGFR T790M kinase
measuredQuantity: IC50 (nM)
Numbers only, in nM.

# querySmiles, scaleUnit, IC50
records = [
    ("C=CC(=O)N1CCC(Oc2cc3c(Nc4ccc(F)c(Cl)c4F)ncnc3cc2OC)CC1", "nM", 1.9),
    ("C=CC(=O)N1CC[C@H](Oc2cc3c(N[C@H](C)c4ccccc4)ncnc3cc2OC)C1", "nM", 27),
    ("C=CC(=O)N1CC[C@@H](Oc2cc3c(Nc4ccc(F)c(Cl)c4F)ncnc3cc2OC)C[C@@H]1C(=O)NC", "nM", 0.9),
    ("C=CC(=O)N1CC[C@@H](Oc2cc3c(Nc4ccc(F)c(Cl)c4F)ncnc3cc2OC)C[C@@H]1C(N)=O", "nM", 0.7),
]

Below is a list of compounds. For each, state its recorded IC50.
1. C=CC(=O)N1CCC(Oc2cc3c(Nc4cccc(Cl)c4F)ncnc3cc2OC)CC1
2. C=CC(=O)N1CC[C@H](Oc2cc3c(Nc4ccc(OCc5ccccn5)c(Cl)c4)ncnc3cc2OC)C1
3. C=CC(=O)N1CC[C@H](Oc2cc3c(Nc4ccc(F)c(Cl)c4F)ncnc3cc2OC)C[C@H]1C(=O)NCCSC
4. C=CC(=O)N1CC[C@@H](Oc2cc3c(Nc4ccc(F)c(Cl)c4F)ncnc3cc2OC)C[C@@H]1C(=O)OC
5. C=CC(=O)N1CC[C@H](Oc2cc3c(Nc4ccc(F)c(Cl)c4F)ncnc3cc2OC)C[C@H]1C(N)=O
6. C=CC(=O)N1CCC(Oc2cc3c(Nc4cccc(C(F)(F)F)c4)ncnc3cc2OC)CC1
7. C=CC(=O)N1CC[C@H](Oc2ccc3ncnc(Nc4ccc(F)c(Cl)c4F)c3c2)C1

OUTPUT:
1: 5; 2: 10; 3: 1.4; 4: 1.7; 5: 0.7; 6: 16.2; 7: 54

Below is a list of compounds. For each, state its recorded IC50.
1. C=CC(=O)N1CC(Oc2cc3c(Nc4cccc(Cl)c4F)ncnc3cc2OC)C1
2. C=CC(=O)N1CCC(Oc2cc3c(Nc4cccc(C=C)c4)ncnc3cc2OC)CC1
3. C=CC(=O)N1CCC(Oc2cc3c(Nc4cccc(Br)c4)ncnc3cc2OC)CC1
4. C=CC(=O)N1CC(Oc2cc3c(Nc4ccc(F)c(Cl)c4F)ncnc3cc2OC)C1
5. C=C(CN1CCOCC1)C(=O)N1CC(Oc2cc3c(Nc4ccc(F)c(Cl)c4F)ncnc3cc2OC)C1
6. C=CC(=O)N1CC[C@H](Oc2cc3c(Nc4ccc(F)c(Cl)c4F)ncnc3cc2OC)C[C@H]1C(=O)NCCOC
7. C=CC(=O)N1CC[C@H](Oc2cc3c(Nc4ccc(F)c(Cl)c4F)ncnc3cc2OC)C[C@H]1C(=O)NCCO

OUTPUT:
1. 4
2. 3
3. 7.1
4. 0.8
5. 4
6. 3.8
7. 1.8

###

Biological target: EGFR (Homo sapiens, UniProt P00533)
Construct: A skin cancer cell line, A431 (ATCC: CRL-1555), was used; endogenous in cells; host or cells: A431 (ATCC: CRL-1555)
Experiment: Prolongation study in A431 cells (EGFR phosphorylation inhibition)
Format: cell-based
Details: A-431; 1 μM for 4 hrs, then washed; 24 hrs after washing; EGF 100 ng/ml; read-out: EGFR phosphorylation inhibition in A431 cell line (%) 24 hrs Avg.
Consider the following compounds; for each one, report its inhibition at 1 µM.
Answers are plain numbers, in %.

# querySmiles, inhibition at 1 µM / %
data = [
    ("C=CC(=O)N1CC[C@H](Oc2cc3c(Nc4ccc(F)c(Cl)c4F)ncnc3cc2OC)C1", 73),
]

Below is a list of compounds. For each, state its recorded inhibition at 1 µM.
1. C=CC(=O)N1CCC(Oc2cc3c(Nc4ccc(Cl)c(Cl)c4F)ncnc3cc2OC)CC1
2. C=CC(=O)N1CCC(Oc2cc3c(Nc4ccc(F)c(Cl)c4F)ncnc3cc2OC)CC1
3. C=CC(=O)N1CC(Oc2cc3c(Nc4ccc(F)c(Cl)c4F)ncnc3cc2OC)C1

OUTPUT:
1. 81
2. 80
3. 62

###

Target: EGFR (Homo sapiens)
Construct: A skin cancer cell line, A431 (ATCC: CRL-1555), was used; endogenous in cells; host or cells: A431 (ATCC: CRL-1555)
Test: Prolongation study in A431 cells (EGFR phosphorylation inhibition)
Type: cell-based
Details: A-431; 1 μM for 4 hrs, then washed; 8 hrs after washing; EGF 100 ng/ml; read-out: EGFR phosphorylation inhibition in A431 cell line (%) 8 hrs Avg.
measuredQuantity: inhibition at 1 µM (%)
Give bare numbers, in %.

# querySmiles, scaleUnit, inhibition at 1 µM
measured = [
    ("C=CC(=O)N1CCC(Oc2cc3c(Nc4ccc(F)c(Cl)c4F)ncnc3cc2OC)CC1", "%", 86),
]

Below is a list of molecules. For each, state its recorded inhibition at 1 µM.
1. C=CC(=O)N1CC[C@H](Oc2cc3c(Nc4ccc(F)c(Cl)c4F)ncnc3cc2OC)C1
2. C=CC(=O)N1CC(Oc2cc3c(Nc4ccc(F)c(Cl)c4F)ncnc3cc2OC)C1
3. C=CC(=O)N1CCC(Oc2cc3c(Nc4ccc(Cl)c(Cl)c4F)ncnc3cc2OC)CC1

OUTPUT:
[71, 88, 89]

###

Target: EGFR (EGFR type 1 kinase, Upstate) (Homo sapiens, UniProt P00533)
Sequence (P00533 25-1210): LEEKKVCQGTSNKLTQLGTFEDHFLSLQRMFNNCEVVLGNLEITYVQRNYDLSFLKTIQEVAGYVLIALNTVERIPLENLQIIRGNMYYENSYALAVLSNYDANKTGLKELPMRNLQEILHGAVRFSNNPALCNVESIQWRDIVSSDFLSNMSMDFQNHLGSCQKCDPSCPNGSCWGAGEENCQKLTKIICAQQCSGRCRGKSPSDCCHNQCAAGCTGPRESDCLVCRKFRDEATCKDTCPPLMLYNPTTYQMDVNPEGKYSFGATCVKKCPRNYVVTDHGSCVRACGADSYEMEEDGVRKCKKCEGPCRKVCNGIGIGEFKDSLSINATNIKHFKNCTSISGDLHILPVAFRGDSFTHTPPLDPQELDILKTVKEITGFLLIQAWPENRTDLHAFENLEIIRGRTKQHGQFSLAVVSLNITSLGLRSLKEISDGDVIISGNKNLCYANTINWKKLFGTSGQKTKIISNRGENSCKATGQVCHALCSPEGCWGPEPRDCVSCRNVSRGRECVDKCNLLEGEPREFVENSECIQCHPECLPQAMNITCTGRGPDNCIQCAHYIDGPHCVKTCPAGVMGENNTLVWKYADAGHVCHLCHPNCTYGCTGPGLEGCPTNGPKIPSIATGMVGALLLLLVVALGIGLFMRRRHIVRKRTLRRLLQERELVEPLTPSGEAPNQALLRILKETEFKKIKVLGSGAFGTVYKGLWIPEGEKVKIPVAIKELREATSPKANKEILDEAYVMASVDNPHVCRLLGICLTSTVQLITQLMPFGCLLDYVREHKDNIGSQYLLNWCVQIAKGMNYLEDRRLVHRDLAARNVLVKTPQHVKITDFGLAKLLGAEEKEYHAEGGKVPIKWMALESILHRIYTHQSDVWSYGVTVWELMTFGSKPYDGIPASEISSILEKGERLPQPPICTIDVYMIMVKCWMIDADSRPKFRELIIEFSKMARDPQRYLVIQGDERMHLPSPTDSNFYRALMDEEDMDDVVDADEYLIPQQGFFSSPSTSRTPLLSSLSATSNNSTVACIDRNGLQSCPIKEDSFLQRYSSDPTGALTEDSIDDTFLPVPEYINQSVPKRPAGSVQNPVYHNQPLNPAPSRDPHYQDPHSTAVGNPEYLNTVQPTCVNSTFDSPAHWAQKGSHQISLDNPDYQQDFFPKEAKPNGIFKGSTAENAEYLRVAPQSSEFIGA
Experiment: Inhibition of EGFR enzyme (fluorescence polarization kinase assay)
Details: read-out: IC50 (nM) EGFR; EGFR type 1 kinase, ATP 50 μM
measuredQuantity: log10 IC50 (log10 of the value in nM)
Log10 applied to IC50; unit prior to transform: nM.

# querySmiles, assayValue
measured = [
    ("C=CC(=O)N1CCC(Oc2cc3c(Nc4cccc(Cl)c4F)ncnc3cc2OC)CC1", 0.78),
]

Below is a list of compounds. For each, state its recorded log10 IC50.
1. C=CC(=O)N1CC[C@H](Oc2cc3c(Nc4ccc(OCc5ccccn5)c(Cl)c4)ncnc3cc2OC)C1
2. C=CC(=O)N1CC[C@H](Oc2cc3c(N[C@H](C)c4ccccc4)ncnc3cc2OC)C1
3. C=CC(=O)N1CC[C@H](Oc2cc3c(Nc4ccc(F)c(Cl)c4F)ncnc3cc2OC)C[C@H]1C(N)=O

OUTPUT:
0.70
1.08
0.15

Below is a list of compounds. For each, state its recorded log10 IC50.
1. C=CC(=O)N1CC[C@H](Oc2ccc3ncnc(Nc4ccc(F)c(Cl)c4F)c3c2)C1
2. C=CC(=O)N1CC(Oc2cc3c(N[C@H](C)c4ccccc4)ncnc3cc2OC)C1

OUTPUT:
[0.95, 0.78]

Below is a list of compounds. For each, state its recorded log10 IC50.
1. C=CC(=O)N1CC(Oc2cc3c(Nc4ccc(F)c(Cl)c4F)ncnc3cc2OC)C1
2. C=CC(=O)N1CCC(Oc2cc3c(Nc4ccc(F)c(Cl)c4F)ncnc3cc2OC)CC1
3. C=CC(=O)N1CC(Oc2cc3c(Nc4cccc(Cl)c4F)ncnc3cc2OC)C1
4. C=CC(=O)N1CC[C@@H](Oc2cc3c(Nc4ccc(F)c(Cl)c4F)ncnc3cc2OC)C[C@@H]1C(N)=O
5. C=CC(=O)N1CC[C@H](Oc2ccc3ncnc(Nc4ccc(OCc5cccc(F)c5)c(Cl)c4)c3c2)C1
6. C=CC(=O)N1CC[C@@H](Oc2cc3c(Nc4ccc(F)c(Cl)c4F)ncnc3cc2OC)C[C@@H]1C(=O)OC

OUTPUT:
[-0.15, 0.04, 0.78, 0.61, 0.90, 0.64]

Below is a list of compounds. For each, state its recorded log10 IC50.
1. C=CC(=O)N1CC(Oc2cc3c(Nc4cccc(Cl)c4)ncnc3cc2OC)C1
2. C=CC(=O)N1CCC(Oc2cc3c(Nc4ccc(F)c(Cl)c4F)ncnc3cc2OCCOC)CC1
3. C=CC(=O)N1CC[C@H](Oc2cc3c(Nc4ccc(Br)c(Cl)c4F)ncnc3cc2OC)C1

OUTPUT:
[0.20, -0.15, 1.00]
